- TEST_SUMMARY: YAP1 pathway inhibitors via CTGF transcript, primary screen, DLD1 colon cancer cells, RT-qPCR, single point (AID 743449);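 also: 0% = neutral control wells and 100% = dasatinib control wells; higher means stronger suppression of CTGF expression like dasatinib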
- CONDITION_CONTEXT: DLD1 CTGF mRNA qPCR, 24 h; at 12.5 µM
The whole screen tested about 9,900 compounds, of which about 90 (0.9%) were called active. Not shown: some 2% with an inconclusive outcome.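 The calls were made as follows: active = mean normalized replicate activity at least 50 and at least half of replicates each reaching 50; inconclusive = only one of the two criteria met; inactive = neither criterion met.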 For the sample, actives were picked, then their nearest neighbours and some compounds at random.
Classes to choose from: T (active), F (inactive)

Answered examples (5):
[
  {
    "MOL_SMILES": "CCc1nc(N2[C@@H](C#N)[C@@H](c3ccccc3-c3ccc(F)cc3)[C@@H]2CO)sc1C",
    "CATEGORY_LABEL": "F"
  },
  {
    "MOL_SMILES": "COc1ccc(S(=O)(=O)N(C)C[C@@H]2Oc3c(NC(=O)c4nc5ccccc5s4)cccc3C(=O)N([C@@H](C)CO)C[C@@H]2C)cc1",
    "CATEGORY_LABEL": "F"
  },
  {
    "MOL_SMILES": "C[C@@H]1CN([C@H](C)CO)C(=O)c2cccc(NC(=O)c3nc4ccccc4s3)c2O[C@@H]1CN(C)C(=O)Nc1ccc2c(c1)OCO2",
    "CATEGORY_LABEL": "F"
  },
  {
    "MOL_SMILES": "O=C(Nc1ccc2c(c1)[C@@H]1C[C@H](CC(=O)N3CCc4ccccc4C3)O[C@@H](CO)[C@@H]1O2)c1ccc2c(c1)OCO2",
    "CATEGORY_LABEL": "F"
  },
  {
    "MOL_SMILES": "C[C@H](CO)N1C[C@H](C)[C@@H](CN(C)C(=O)Nc2ccc3c(c2)OCO3)Oc2c(NC(=O)c3nc4ccccc4s3)cccc2C1=O",
    "CATEGORY_LABEL": "F"
  }
]

[in] Fill in: this test's call for Cc1noc(C)c1S(=O)(=O)N(C)C[C@H]1OCc2ccccc2-c2ccccc2C(=O)N([C@H](C)CO)C[C@H]1C is ___
[out] F

[in] Fill in: this test's call for CCc1nc(N2[C@H](CO)[C@@H](c3ccccc3-c3ccc(F)cc3)[C@@H]2C#N)sc1C is ___
[out] T

----------
Would you mind telling me the reported inhibition of each entry?
- TEST_SUMMARY: YAP1 pathway inhibitors via CTGF transcript, primary screen, DLD1 colon cancer cells, RT-qPCR, single point (AID 743449);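 also: 0% = neutral control wells and 100% = dasatinib control wells; higher means stronger suppression of CTGF expression like dasatinib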
- CONDITION_CONTEXT: DLD1 CTGF mRNA qPCR, 24 h; at 12.5 µM; stronger effect = higher value
Out of some 9,900 compounds screened, about 90 (0.9%) were called active. About 2% were inconclusive and are not listed. What follows is part of a selection rich in actives, with near analogues and random picks from the rest.

[
  {
    "MOL_SMILES": "C/C=C/c1ccc2c(c1)[C@@H]1[C@@H](CCN1S(=O)(=O)c1ccccc1OC)[C@H](CO)N2C",
    "inhibition": "-5.93% (inactive)"
  },
  {
    "MOL_SMILES": "Cc1ccc(S(=O)(=O)N2CC[C@@H]3[C@@H](CO)Nc4ccc(-c5cccc(C(=O)N(C)C)c5)cc4[C@@H]32)cc1",
    "inhibition": "4.93% (inactive)"
  },
  {
    "MOL_SMILES": "N#Cc1cccc(-c2ccc3c(c2)[C@H]2[C@H](CCN2S(=O)(=O)c2ccc(F)cc2)[C@H](CO)N3)c1",
    "inhibition": "20.1% (inactive)"
  }
]

[in] Returns the measured inhibition for the input compound. Input: COc1ccccc1S(=O)(=O)N1CC[C@@H]2[C@H]1c1cc(-c3cccc(C#N)c3)ccc1N(C)[C@H]2CO
[out] 62.1% (active)

----------
- TEST_SUMMARY: YAP1 pathway inhibitors via CTGF transcript, primary screen, DLD1 colon cancer cells, RT-qPCR, single point (AID 743449);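 also: 0% = neutral control wells and 100% = dasatinib control wells; higher means stronger suppression of CTGF expression like dasatinib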
- CONDITION_CONTEXT: DLD1 CTGF mRNA qPCR, 24 h; at 12.5 µM; stronger effect = higher value
The campaign covered roughly 9,900 compounds. About 90 (0.9%) were called active. About 2% were inconclusive and are not listed. Only a selection was taken, and actives are over-represented in it overall.
Would you mind telling me the reported inhibition of each entry?
Answers are plain numbers, in %.

Solved entries:
[
  {
    "MOL_SMILES": "COc1ccccc1NC(=O)N1CCCCN2[C@H](CO)[C@H](c3ccc(-c4cccc(C#N)c4)cc3)[C@@H]2C1",
    "inhibition / %": 52.5
  },
  {
    "MOL_SMILES": "O=C([C@@H]1[C@@H](CO)[C@@H]2Cn3c(ccc(-c4ccc(F)cc4)c3=O)[C@@H]2N1Cc1cocn1)N1CCCCC1",
    "inhibition / %": -1.91
  },
  {
    "MOL_SMILES": "O=C(CN1CCOCC1)N1CC[C@@H]2[C@H](CO)Nc3ccc(-c4ccccc4F)cc3[C@@H]21",
    "inhibition / %": -17.8
  },
  {
    "MOL_SMILES": "O=C(Nc1ccc(F)cc1)N1C[C@@H]2[C@H](c3ccccc31)[C@@H](CO)N2Cc1ccccc1Cl",
    "inhibition / %": -18.1
  },
  {
    "MOL_SMILES": "O=C([C@H]1[C@H](CO)[C@H]2Cn3c(ccc(-c4ccc(F)cc4)c3=O)[C@H]2N1Cc1cocn1)N1CCCCC1",
    "inhibition / %": 53.6
  },
  {
    "MOL_SMILES": "CC(=O)N1CCCCN2[C@@H](CO)[C@H](c3ccc(-c4ccccc4)cc3)[C@@H]2C1",
    "inhibition / %": 62
  }
]

Go through the items and report each one's inhibition.
1. CO[C@@H](CN(C)S(=O)(=O)c1ccc(C)cc1)[C@@H](C)CN([C@@H](C)CO)S(=O)(=O)c1cccc(Cl)c1
2. O=C(CN1CCOCC1)N1CC(=O)N2[C@H](C1)[C@@H](c1ccc(-c3cccc(F)c3)cc1)[C@@H]2CO
3. CO[C@@H](CN(C)S(=O)(=O)c1ccc(C)cc1)[C@@H](C)CN([C@H](C)CO)S(=O)(=O)c1cccc(Cl)c1

[out]
38.7
10.6
74.7

Go through the items and report each one's inhibition.
1. CCC(=O)N1C[C@H](C)[C@@H](OC)CN(C)C(=O)c2ccc(NC(=O)CC(F)(F)F)cc2OC[C@@H]1C
2. CO[C@H](CN(C)S(=O)(=O)c1ccc(C)cc1)[C@H](C)CN([C@@H](C)CO)S(=O)(=O)c1cccc(Cl)c1
3. COc1ccccc1NC(=O)N1CCCCN2[C@H](CO)[C@@H](c3ccc(-c4cccc(C#N)c4)cc3)[C@H]2C1
4. COc1ccccc1NC(=O)N1CCCCN2[C@@H](CO)[C@@H](c3ccc(-c4cccc(C#N)c4)cc3)[C@@H]2C1
5. CNC[C@@H]1OCCCC[C@H](C)Oc2ccc(NS(=O)(=O)c3ccc(F)cc3)cc2C(=O)N([C@@H](C)CO)C[C@H]1C
6. C/C=C/c1cccc(-c2nc(C(=O)Nc3nccs3)cc3c2[C@@H](CCO)N(C(=O)NC(C)C)C3)c1
7. O=C(Nc1ccc2c(c1)[C@@H]1C[C@H](CC(=O)N3CCc4ccccc4C3)O[C@H](CO)[C@@H]1O2)c1ccc2c(c1)OCO2
8. C/C=C/c1cccc(-c2nc(C(=O)N3CCCCC3)cc3c2[C@@H](CCO)N(C(=O)NC(C)C)C3)c1

[out]
-9.99
1.44
-21.9
-18.2
-4.63
59.6
-19.3
-19.7

Go through the items and report each one's inhibition.
1. CCCNC(=O)N1[C@@H](C#N)[C@@H](c2ccc(C#Cc3cccc(F)c3)cc2)[C@@H]1CO
2. CO[C@H](CN(C)S(=O)(=O)c1ccc(C)cc1)[C@H](C)CN([C@H](C)CO)S(=O)(=O)c1cccc(Cl)c1
3. CC(C)N(C[C@H]1N[C@H](CO)[C@H]1c1ccccc1)S(=O)(=O)c1ccccc1
4. CO[C@H](CN(C)S(=O)(=O)c1ccc(C)cc1)[C@@H](C)CN([C@H](C)CO)S(=O)(=O)c1cccc(Cl)c1
5. CCCNC(=O)N1[C@H](C#N)[C@@H](c2ccc(C#Cc3cccc(F)c3)cc2)[C@@H]1CO

[out]
[40.6, 16.6, -1.38, 32.6, 69.7]

Go through the items and report each one's inhibition.
1. COc1ccc(-c2ccc([C@H]3[C@H](CO)N4C(=O)CN(C(=O)C5CC5)C[C@@H]34)cc2)cc1
2. CO[C@H](CN(C)Cc1ccc2c(c1)OCO2)[C@@H](C)CN(C(=O)Nc1ccc(F)cc1)[C@H](C)CO
3. O=C(Nc1ccc2c(c1)[C@H]1C[C@@H](CC(=O)N3CCc4ccccc4C3)O[C@@H](CO)[C@H]1O2)c1ccc2c(c1)OCO2
4. CCCNC(=O)N1[C@H](C#N)[C@H](c2ccc(C#Cc3cccc(F)c3)cc2)[C@H]1CO
5. COc1cccc(S(=O)(=O)N[C@H]2CC[C@@H](CC(=O)NC3Cc4ccccc4C3)O[C@H]2CO)c1
6. CO[C@@H](CN(C)Cc1cc(F)ccc1F)[C@@H](C)CN([C@H](C)CO)S(=O)(=O)c1ccc(C)cc1

[out]
1: 4.63; 2: -17.7; 3: 61.8; 4: 12.2; 5: 0.76; 6: 14.9

Just for reference, PubChem BioAssay AID743449 is where these values come from.
